// data source = ChEMBL document CHEMBL1641478

# ASSAY_TARGET: Human immunodeficiency virus type 1 reverse transcriptase (Human immunodeficiency virus 1, UniProt Q72547)
EXPERIMENTAL_READOUT: IC50 (µM)

(A) CC(C)(Cc1ccccc1)NC(=O)COC(=O)c1ccc([N+](=O)[O-])o1
(B) CC(C)(C)N(Cc1cccc(C(F)(F)F)c1)C(=O)COC(=O)c1ccc([N+](=O)[O-])o1
stdin: # query: argmin of IC50 over A and B Could you answer with the label of the item you picked?
stdout: A

###

Listing of recorded CC50 at 72 h by entry.
# RUN_DESCRIPTION: Cytotoxicity against human 293T cells after 3 days by MTT assay
# Format: cell-based, HEK-293T
# TEST_PARAMETERS: 293T cells

{"columns": ["COMPOUND", "CC50 at 72 h"],
 "data": [
  ["CC(C)(C)NC(=O)COC(=O)c1ccc([N+](=O)[O-])o1", "> 100 µM"]
]}

stdin: If you can, please state the reported CC50 at 72 h value of `CCC(C)(C)NC(=O)COC(=O)c1ccc([N+](=O)[O-])o1` .
stdout: > 100 µM

stdin: Try this compound next: O=C(OCC(=O)N(Cc1ccccc1)CC1CCCO1)c1ccc([N+](=O)[O-])o1 (centres undefined)
stdout: > 100 µM

stdin: Here is the next compound: `CC(C)(C)N(Cc1ccc(C(F)(F)F)cc1)C(=O)COC(=O)c1ccc([N+](=O)[O-])o1`
stdout: 36 µM
